Overview of recorded glycan array binding signal (z-score) for various binders
# Tgt: Gal(b1-4)GlcNAc(b1-3)Gal(b1-4)GlcNAc(b1-6)[Gal(b1-3)]GalNAc
# Test Name: glycan array binding signal (z-score within array); higher = stronger binding
# Condition Label: glycan notation: IUPAC condensed, linker removed
This excerpt belongs to a sample that is enriched for the strongest signals.
// return a plain number; no unit text

binder="ECA (Erythrina cristagalli), P83410 (protein) VETISFSFSEFEPGNDNLTLQGAALITQSGVLQLTKINQNGMPAWDSTGRTLYTKPVHMWDSTTGTVASFETRFSFSIEQPYTRPLPADGLVFFMGPTKSKPAQGYGYLGVFNNSKQDNSYQTLAVEFDTFSNPWDPPQVPHIGIDVNSIRSIKTQPFQLDNGQVANVVIKYDAPSKILHVVLVYPSSGAIYTIAEIVDVKQVLPDWVDVGLSGATGAQRDAAETHDVYSWSFQASLPE" reported_measurement=4.88
binder="HPA (Helix pomatia), Q2F1K8 (protein) MQAFYSGLLLLCVVAFAAAQRVQSGKIDCGNDAGWAKVPSDDPGRDNTRELAKNITFASPYCRPPVVLLSITQLDVEQSQNLRVIARLYSVSPTGFKASCYTWHNTKVYSMSISWISIENY" reported_measurement=0.365
binder="OrysaEULS2 (Oryza sativa) (protein) MVYCRANPNYAMTARNGAVVLAPANPKDEYQHWIKDMRWSTSIKDEEGYPAFALVNKATGQAIKHSLGQSHPVRLVPYNPEVMDESVLWTESRDVGNGFRCIRMVNNIYLNFDAFHGDKYHGGVRDGTDIVLWKWCEGDNQRWKIQPYYILEQKLISEEDLNSAVDHHHHHH" reported_measurement=-0.172
binder="SP8524D-bot-399-27-399 (Bacteroides ovatus) (protein) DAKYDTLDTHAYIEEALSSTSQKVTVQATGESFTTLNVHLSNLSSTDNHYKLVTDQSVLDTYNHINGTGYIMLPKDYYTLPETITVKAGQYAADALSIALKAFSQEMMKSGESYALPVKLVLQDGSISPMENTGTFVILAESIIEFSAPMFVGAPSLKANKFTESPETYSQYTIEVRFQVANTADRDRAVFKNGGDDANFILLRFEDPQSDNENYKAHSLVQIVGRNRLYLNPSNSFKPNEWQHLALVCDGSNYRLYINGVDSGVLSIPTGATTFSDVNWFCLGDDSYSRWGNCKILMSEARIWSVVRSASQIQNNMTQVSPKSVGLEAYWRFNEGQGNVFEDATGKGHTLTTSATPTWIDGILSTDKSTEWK" reported_measurement=0.317

q: Would you mind telling me what glycan array binding signal (z-score) value was observed for SP15308F-bth-333-19-333 (Bacteroides thetaiotaomicron) (protein) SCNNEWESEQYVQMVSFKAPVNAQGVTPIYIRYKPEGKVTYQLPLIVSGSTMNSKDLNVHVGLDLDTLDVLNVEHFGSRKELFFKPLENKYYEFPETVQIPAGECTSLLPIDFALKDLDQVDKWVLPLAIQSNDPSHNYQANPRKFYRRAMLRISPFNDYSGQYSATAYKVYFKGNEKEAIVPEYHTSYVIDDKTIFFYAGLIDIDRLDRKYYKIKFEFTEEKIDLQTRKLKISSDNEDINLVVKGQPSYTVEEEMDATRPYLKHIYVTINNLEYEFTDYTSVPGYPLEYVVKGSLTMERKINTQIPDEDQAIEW ?
a: -0.045
